tested on: Glutamate receptor ionotropic, NMDA 3A (GRIN3A) ligand-binding domain; assay: binders of NR3A ligand-binding domain, primary screen, biophysical, differential scanning fluorimetry, uHTS (AID 1259313); settings: NR3A LBD differential scanning fluorimetry, at 25 µM, hits give high values, 0% = protein alone, 100% = glycine-bound protein
In all, about 340,000 compounds went through this assay and about 8,500 (2.5%) were called active. For the sample, actives were picked, then their nearest neighbours and some compounds at random.
reported endpoint: Tm shift relative to glycine control

Answered cases to consult:
compound | target desc | Tm shift relative to glycine control
O=C(COC(=O)c1cc(-c2cccs2)nn1-c1ccccc1)Nc1cc([N+](=O)[O-])ccc1Cl | Glutamate receptor ionotropic, NMDA 3A (GRIN3A) ligand-binding domain | -1.02% (inactive)
CNC(=O)c1sc(Nc2ccc(OCc3ccccc3)cc2)nc1C | Glutamate receptor ionotropic, NMDA 3A (GRIN3A) ligand-binding domain | 33.7% (active)
COc1ccc(Cn2c(=S)[nH]c3cc(C(=O)N4CCCCC4)ccc3c2=O)cc1 | Glutamate receptor ionotropic, NMDA 3A (GRIN3A) ligand-binding domain | 0.18% (inactive)

Look up Tm shift relative to glycine control for this compound: O=C1CCCC2=C1C(c1ccccc1)n1c(s/c(=C/c3cccc(F)c3)c1=O)=N2 (stereo not drawn)
2.84% (inactive)

Look up Tm shift relative to glycine control for this compound: CCc1cc(C(N)=O)c(NC(=O)c2ccc(OC)cc2)s1
12.6% (active)

Look up Tm shift relative to glycine control for this compound: NNC(=O)CNC(c1ccccc1)c1cc(Cl)ccc1NC(=O)c1ccccc1 (stereo not drawn)
2.13% (inactive)

Look up Tm shift relative to glycine control for this compound: CCN(CC)C(=O)CSc1nnc(CNc2ccc(F)cc2)n1Cc1ccco1
1.69% (inactive)

Look up Tm shift relative to glycine control for this compound: COc1ccc(S(=O)(=O)Nc2ccc(O)c(Sc3nc4ccccc4s3)c2)cc1
11.6% (active)

* * *

tested on: Glutamate receptor ionotropic, NMDA 3A (GRIN3A) ligand-binding domain; assay: binders of NR3A ligand-binding domain, primary screen, biophysical, differential scanning fluorimetry, uHTS (AID 1259313); conditions: NR3A LBD differential scanning fluorimetry, at 25 µM, hits give high values, 0% = protein alone, 100% = glycine-bound protein
The campaign covered roughly 340,000 compounds. About 8,500 (2.5%) were called active. Shown is part of a subset that was picked to be rich in actives.
This listing pairs molecules with measured Tm shift relative to glycine control.
The reply should be a number in %, with the unit left off.

Answered cases to consult:
molecule | measurement unit | Tm shift relative to glycine control
CCOc1ccc(NC(=O)CN(C)C(=O)CSc2ccccc2)cc1OCC | % | -0.35
CCCCn1c(SCc2ncc(-c3ccccc3)o2)nc2cc(S(N)(=O)=O)ccc21 | % | -10.6

Look up Tm shift relative to glycine control for this molecule: Cc1cc(C(=O)N2CCC(C(=O)O)CC2)c(C(F)(F)F)o1
2.93

Look up Tm shift relative to glycine control for this molecule: O=C(N/N=C/c1ccc([N+](=O)[O-])o1)c1cn(-c2ccccc2)nc1-c1ccc(F)cc1
57.3

* * *

test system: Glutamate receptor ionotropic, NMDA 3A (GRIN3A) ligand-binding domain; test: binders of NR3A ligand-binding domain, primary screen, biophysical, differential scanning fluorimetry, uHTS (AID 1259313); conditions: NR3A LBD differential scanning fluorimetry, at 25 µM, hits give high values, 0% = protein alone, 100% = glycine-bound protein
Screen size: about 340,000 compounds; about 8,500 (2.5%) were called active. This excerpt belongs to a sample that is enriched for actives.
reported endpoint: Tm shift relative to glycine control (%)
The reply should be a number in %, with the unit left off.

Answered cases to consult:
compound | Tm shift relative to glycine control / %
COc1cc(/C=C/CNC[C@H]2O[C@@H](n3cnc(C(N)=O)n3)[C@H](O)[C@@H]2O)ccc1O | -1.5
CCc1cc(-c2nnc(SCC(=O)NC3CC3)n2C)cs1 | -0.41
CCOC(=O)CN1C(=O)C(=O)c2cc(C)ccc21 | 0.43

Look up Tm shift relative to glycine control for this compound: O=C(CNCCO)NC12CC3CC(CC(C3)C1)C2
-0.61

Look up Tm shift relative to glycine control for this compound: Cc1nc2ccccc2n1CC(=O)N/N=C/c1cccs1
-4.96

Look up Tm shift relative to glycine control for this compound: CCc1nonc1NC(=O)c1oc2ccc(Cl)cc2c1C
-0.44

Look up Tm shift relative to glycine control for this compound: Fc1ccc2nc(Nc3nc4c(s3)CCCC4)sc2c1
-1.71

Look up Tm shift relative to glycine control for this compound: CCN1CCN(c2nc(Nc3cccc(F)c3)nc(N)c2[N+](=O)[O-])CC1
0.95

Look up Tm shift relative to glycine control for this compound: O=C(NCc1cccnc1)c1cccc(-c2cc3ccccc3oc2=O)c1
-2.7

Look up Tm shift relative to glycine control for this compound: O=C(O)/C=C/c1ccc(OCCCF)cc1
-1.35
